# assay: basal 3T3-L1 adipocyte mitochondrial potential changes, profiling panel, cell-based, JC-1 fluorescence, 3T3-L1 adipocytes, 24 h, 100 nL compound (AID 1168); further: test concentration not given here
# recorded.conditions: JC-1 mitochondrial fluorescence, higher = more signal, called active from +8 up or from −8 down
# z-score per entry
readout.name: z-score

compound	reading
CCCN1C(=O)[C@@]2(CCS(=O)(=O)c3ccccc3)N=C(c3ccc(OCCCO)cc3)O[C@H]2c2ccccc21	0.535
CCCC[C@H]1OB(O)C[C@H]2C1=C(COC)C[C@H]1C(=O)N(Cc3ccccc3)C(=O)[C@H]12	0.835
COC(=O)C1=CC(c2ccc(CO)cc2)=CC(C2CC2)N(Cc2sc3ccccc3c2Cl)C=C1C(=O)OC (stereo unspecified)	0.982
O=C(NCc1ccccc1)c1ccc(Br)cc1[N+](=O)[O-]	0.346
CO[C@H]1COC(=O)[C@@H](Cc2ccccc2)NC(=O)[C@@H](C)COC(=O)CC=C[C@@H]1C	0.0117
COc1ccc([Si](C)(C)[C@H]2[C@H](CCO)O[C@@]3(C(=O)N(Cc4ccc(N5CCCCC5=O)cc4)c4ccccc43)[C@@H]2C)cc1	1.04
COc1ccc(NN2C(C(O)c3cc(OC)c(OC)c(OC)c3)C=CC3C(=O)N(C4CCCCC4)C(=O)C32)cc1 (stereo unspecified)	-0.569
CC1CC/C=C\[C@H]2OC34C=CCN(Cn5nnc6ccccc65)C(=O)[C@H]3N(C(C)CO)C(=O)[C@@H]4C2C(=O)O1 (stereo partly specified)	-0.087
O=C(CS)NCCCCCNC(=O)[C@H]1C[C@H]2C(=O)N[C@@H](Cc3ccccc3)C(=O)N2[C@H]1c1ccc(O)cc1	0.765
CO[C@H]1COC(=O)CC=C[C@H](C)[C@@H](OC)COC(=O)[C@H](Cc2ccccc2)NC(=O)CC=C[C@@H]1C	0.746
CCOC(=O)C1=CCC(c2cccc3ccccc23)N(S(=O)(=O)c2ccc(C)cc2)C1 (stereo unspecified)	-0.759
Cc1ccc(N2C(=O)c3ccccc3[C@@H](C(=O)NCc3ccccc3)[C@@H]2c2ccc(CO)cc2)nc1	1.07
COc1ccc([C@H]2C[C@H]3C(Br)=C[C@]2(OC)C(=O)[C@]32CO2)cc1	-0.414
O=[N+]([O-])c1ccc(C[n+]2ccc3ccc(O)cc3c2)o1	-0.157
C=C(CCCC)/C(=C/C[C@@H](OC(=O)c1ccncc1)c1cccc(OCCO)c1)c1cc(C(=O)OC)ccc1OC	0.244
C=C(CCCC)C(=O)CC[C@@H](OC(=O)c1cccnc1)c1cccc(OCCO)c1	0.645
CC(C)(C)OC(=O)CC[C@@]1(C(=O)NCc2ccccc2)N=C(c2ccc(OCCCO)cc2)O[C@@H]1c1ccccc1	4.19
C=CCN1C(=O)[C@]2(O[C@H](CCn3cc(CCO)nn3)[C@@H]([Si](C)(C)c3ccc(OC)cc3)[C@@H]2C)c2cc(NC(=O)c3ccc(OC)cc3)ccc21	1.61
[N-]=[N+]=NCc1ccccc1C[C@]1(C(N)=O)N=C(c2ccc(OCCCO)cc2)O[C@H]1c1ccccc1CN=[N+]=[N-]	0.575
Cc1ccc(S[C@]2(C(=O)NC(C)C)CC(=O)N(Cc3cc(C(F)(F)F)cc(C(F)(F)F)c3)[C@@H]2c2ccc(CO)cc2I)cc1	0.667
CO[C@@H]1COC(=O)[C@@H]2CCCN2C(=O)CC=C[C@@H](C)[C@H](OC)COC(=O)[C@@H]2CCCN2C(=O)CC=C[C@H]1C	1.15
CO[C@H]1COC(=O)[C@H](CCSC)NC(=O)CC=C[C@@H](C)COC(=O)[C@@H](OCc2ccccc2)C=C[C@@H]1C	1.23
C=CCN1C(=O)[C@@]2(O[C@@H](CCn3cc([C@H](O)c4ccccc4)nn3)[C@H]([Si](C)(C)c3ccc(OC)cc3)[C@H]2C)c2cc(N3CCOC3=O)ccc21	1.92
Cc1ccc(S[C@]2(C(=O)NC3CC3)CC(=O)N(Cc3cc(C(F)(F)F)cc(C(F)(F)F)c3)[C@@H]2c2ccc(CO)cc2)cc1	-0.472
CCCNC(=O)[C@@H]1c2ccccc2C(=O)N(Cc2cc(F)cc(C(F)(F)F)c2)[C@H]1c1ccc(CO)cc1	-0.31
O=C1C2C=CC(C(O)C(c3ccccc3)c3ccccc3)N(Nc3ccc([N+](=O)[O-])cc3)C2C(=O)N1c1ccccc1 (stereo unspecified)	-0.735

###

# Test system: glycogen synthase kinase-3 (GSK3A per assay name; protocol says GSK3B)
# assay: GSK3 binders on small-molecule microarrays, primary screen, biochemical, small-molecule microarray, 635 nm fluorescence, GSK3A (AID 1103); further: the record names both GSK3A and GSK3B
# recorded.conditions: small-molecule microarray binding, fluorescence 635 nm; higher = more signal
# composite z-score per entry
readout.name: composite z-score

compound	reading
CCCCCCc1nc(-c2cc(C)c(OC)c(C)c2)cc2c1[Si](C(C)C)(C(C)C)O[C@H]2c1ccccc1	-0.849
CO[C@H]1COC(=O)[C@@H](Cc2ccccc2)NC(=O)[C@@H](C)COC(=O)CC=C[C@@H]1C	-0.0524
CCOC(=O)C[C@H]1[C@H](OC(=O)c2ccccc2-c2ccccc2)[C@@H](NC(=O)C2CCCCC2)c2cc(OCCCO)ccc2N1C(=O)c1ccccc1	0.524
COc1ccc(CCNC(=O)[C@@]2(c3ccc([N+](=O)[O-])cc3)CC(=O)N(C(C)C)[C@@H]2c2ccc(CO)cc2)cc1	-0.767
CO[C@H]1COC(=O)CC=C[C@H](C)[C@@H](OC)COC(=O)CC=C[C@@H]1C	0.309
COC(=O)Cn1c(C(=O)N2CCCC2)cc2c1C[C@H]1CN(C(=O)c3ccccc3)[C@@](Cc3ccccc3)(C(=O)OC)[C@@H]21	-0.838
Cc1ccc(N2C(=O)c3ccccc3[C@](C)(C(=O)O)[C@@H]2c2ccc(CO)cc2)nc1	-1.45
O=C1O[C@H](c2ccccc2)[C@H](c2ccccc2)N2[C@H]1[C@@H](C(=O)NC[C@H](O)c1ccccc1)[C@]1(C(=O)Nc3ccc(C#CC4(O)CCCCCC4)cc31)[C@H]2c1ccc(OCCO)cc1	0.563
C=CC[C@]1(C(=O)NCC(O)CO)N=C(c2ccc(OCCCO)cc2)O[C@H]1c1ccccc1 (some centres undefined)	0.321
CO[C@@H]1COC(=O)[C@@H]2CCCN2C(=O)CC=C[C@@H](C)[C@H](OC)COC(=O)[C@@H]2CCCN2C(=O)CC=C[C@H]1C	0.171
NC(=O)NCC#Cc1ccc2c(c1)[C@]1(C(=O)N2)[C@H](C(N)=O)[C@H]2C(=O)O[C@H](c3ccccc3)[C@H](c3ccccc3)N2[C@@H]1c1ccccc1OCCO	0.343
CCOC(=O)C1=CC[C@@H](c2ccccc2)N(S(=O)(=O)c2ccc(C)cc2)[C@H]1C	0.312
C=CCC(OC(C)=O)[C@@H]1[C@@H](N(Cc2cc3ccccc3o2)C(=O)Cc2ccc(F)cc2)c2cc(OCCCO)ccc2N1C(=O)c1ccc(-c2ccccc2)cc1 (some centres undefined)	-0.708
CCOC(=O)C1=C[C@@H](c2ccccc2)N(S(=O)(=O)c2ccc(C)cc2)[C@H]1c1ccc(F)cc1	1.29
O=C1c2ccccc2[C@](Cc2ccccc2I)(C(=O)NCC(F)(F)F)[C@H](c2ccc(CO)cc2)N1Cc1ccccc1C(F)(F)F	0.926
CC(=O)NCCCC[C@@H]1NC(=O)[C@H]2C[C@@H](C(=O)NCCCCCCN(C)C)[C@@H](c3ccc(O)cc3)N2C1=O	1.35
COc1ccc([Si](C)(C)[C@@H]2[C@@H](CC(=O)N(CCO)Cc3ccccc3)O[C@]3(C(=O)N(Cc4cccc(N5CCC5=O)c4)c4ccccc43)[C@H]2C)cc1	0.583
CC[C@@H]1C=C(C(=O)O)[C@H](c2ccccc2)N1S(=O)(=O)c1ccc([N+](=O)[O-])cc1	1.16
C=CCC(OC(C)=O)[C@@H]1[C@@H](N(Cc2ccc(-c3cccc(C(F)(F)F)c3)o2)C(=O)Cc2ccc(F)cc2)c2cc(OCCCO)ccc2N1C(=O)c1ccc(-c2ccccc2)cc1 (some centres undefined)	-0.847

###

# composite z-score per entry
# target.or.system: Focal adhesion kinase 1 (Homo sapiens)
# assay: small-molecule microarray binders of FAK, primary screen, biochemical, 635/667 nm fluorescence, BSA, DTT (AID 1130);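 further: composite of spot emission at 667 nm and signal to noise over triplicate slides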
# recorded.conditions: PTK2 binding, 635 nm fluorescence, higher = more signal
readout.name: composite z-score

compound	reading
CC(=O)NCCCC[C@@H]1NC(=O)[C@H]2C[C@@H](C(=O)NCCCCCCN(C)C)[C@@H](c3ccc(O)cc3)N2C1=O	0.554
COC(=O)C[C@H]1O[C@]2(C(=O)N(Cc3ccccc3)c3ccc(I)cc32)[C@@H](C)[C@@H]1[Si](C)(C)c1ccc(OC)cc1	-0.172
C=CC[C@]1(C(N)=O)N=C(c2ccc(OCCCO)cc2)O[C@H]1c1ccccc1CN=[N+]=[N-]	0.409
CN1C(=O)C2C=CC(C(O)c3ccc(N(C)C)cc3)N(Nc3ccc([N+](=O)[O-])cc3[N+](=O)[O-])C2C1=O (configuration not stated)	0.171
COCCOC(=O)N1C(=O)[C@@]2(c3cc(C#CCNC(N)=O)ccc31)[C@H](c1ccccc1OCCO)N1[C@H](c3ccccc3)[C@H](c3ccccc3)OC(=O)[C@H]1[C@@H]2C(=O)NC[C@H](O)c1ccccc1	0.499
COC(=O)c1c(CC[C@@H](CO)NC(=O)N[C@H](Cn2cc(-c3cncn3C)nn2)C(C)C)oc(C(C)=O)c1C(=O)OC	-0.205
C#CCCCON=C1C[C@@H](O)[C@@H](O)[C@@H]2[C@@H]3C(=O)N(Cc4ccc5c(c4)OCO5)C(=O)[C@@H]3CC[C@@H]12	-0.0967
C=CCC(OC(C)=O)[C@@H]1[C@@H](N(Cc2ccc(-c3ccccc3)cc2)C(=O)c2ccc(-c3ccccc3)cc2)c2cc(OCCCO)ccc2N1C(=O)Cc1ccc(OC)cc1 (some centres not stated)	0.602
CC(=O)NCCCC[C@@H]1NC(=O)[C@@H]2C[C@H](C(=O)NCc3ccc(F)cc3)[C@H](c3cccc(OCCO)c3)N2C1=O	-0.135
COCCOC(=O)N1C(=O)[C@@]2(c3cc(C#CCCO)ccc31)[C@H](C(=O)N1CCCCCCC1)[C@H]1C(=O)O[C@H](c3ccccc3)[C@H](c3ccccc3)N1[C@@H]2c1ccc(O)cc1	1.49
Cc1cc(C)c(C(O)C2C=CC3C(=O)N(C)C(=O)C3N2N2CCCCC2)c(C)c1 (configuration not stated)	-0.193
O=C1O[C@H](c2ccccc2)[C@H](c2ccccc2)N2[C@H]1[C@@H](C(=O)NC[C@H](O)c1ccccc1)[C@]1(C(=O)Nc3ccc(C#CC4(O)CCCCCC4)cc31)[C@H]2c1ccc(OCCO)cc1	0.285
C=CCNC(=O)[C@H]1[C@@H]2C(=O)O[C@@H](c3ccccc3)[C@@H](c3ccccc3)N2[C@@H](c2ccccc2OCCO)[C@]12C(=O)N(C(=O)OCCOC)c1ccc(C#CCNC(N)=O)cc12	0.409
CC(C)=C1C(=O)C(c2ccccc2)=C2CN3C(=O)N(CCc4ccccc4)C(=O)[C@]3(Cc3ccccc3)[C@H]21	0.521
COC(=O)C(CC#Cc1ccc2c(c1)[C@]1(C(=O)N2)[C@H](C(=O)N2CCCCCCC2)[C@H]2C(=O)O[C@H](c3ccccc3)[C@H](c3ccccc3)N2[C@@H]1c1ccc(O)cc1)C(=O)OC	-0.222
CO[C@H]1COC(=O)CC=C[C@@H](C)COC(=O)[C@@H](C)NC(=O)CC=C[C@@H]1C	-1.02
CCOC(=O)C[C@H]1[C@H](OC(=O)c2cc3ccccc3oc2=O)[C@@H](NC(=O)C2CCCCC2)c2cc(OCCCO)ccc2N1C(=O)c1ccc2ccccc2n1	2.65
C[C@@H]1CC[C@H]2C(=O)N3CCC[C@H]3C(=O)N2[C@H]1c1ccc(Br)cc1	0.335
C=C(CCCC)/C(=C/C[C@@H](OC(=O)c1ccncc1)c1cccc(OCCO)c1)c1cc(C(=O)OC)ccc1OC	0.0708
CCCC[C@H]1OB(O)C[C@H]2C1=C(COC)C[C@H]1C(=O)N(Cc3ccccc3)C(=O)[C@H]12	0.112
COC(=O)[C@@]1(Cc2ccccc2CN=[N+]=[N-])N=C(c2ccc(OCCCO)cc2)O[C@H]1c1ccccc1N=[N+]=[N-]	1.96
CCOC(=O)C1=C[C@@H](c2ccccc2)N(S(=O)(=O)c2ccc(C)cc2)[C@H]1c1ccc(F)cc1	1.23
